tested system: PTPN2 (B16F10.4 cells) (Mus musculus)
Construct: HiBiT; host or cells: B16F10.4
Sequence (Q06180 whole entry): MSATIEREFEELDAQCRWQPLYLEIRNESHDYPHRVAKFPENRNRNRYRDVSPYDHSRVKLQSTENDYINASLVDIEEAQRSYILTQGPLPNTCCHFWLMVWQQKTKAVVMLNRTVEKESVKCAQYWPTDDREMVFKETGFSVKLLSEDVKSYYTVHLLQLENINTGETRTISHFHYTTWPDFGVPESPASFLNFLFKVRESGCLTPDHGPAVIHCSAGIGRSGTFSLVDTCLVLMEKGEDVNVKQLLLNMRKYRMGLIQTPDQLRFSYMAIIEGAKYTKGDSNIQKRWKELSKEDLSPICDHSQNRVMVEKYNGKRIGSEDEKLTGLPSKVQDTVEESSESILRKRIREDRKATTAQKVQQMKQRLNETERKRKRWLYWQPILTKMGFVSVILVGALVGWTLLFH
protocol: HiBiT Degradation B16F10.4 PTPN2
Format: cell-based
recorded conditions: 24.0 hours
Provide the recorded DC50 for the entries that follow.

Some compounds with recorded DC50:
[[record]]
compound = "O=C(O)COc1c(C(=O)O)sc(-c2cccc(NC3CCN(S(=O)(=O)Cc4cccc(NC(=O)CCCCCNC(=O)CNc5cccc6c5CN(C5CCC(=O)NC5=O)C6=O)c4)CC3)c2)c1Cl (stereo not drawn)"
tested_system = "PTPN2 (B16F10.4 cells) (Mus musculus)"
property = "DC50"
reported = "≥ 1 µM"

[[record]]
compound = "CC1(C)C[C@@H](Nc2cccc(-c3sc(C(=O)O)c(OCC(=O)O)c3Cl)c2)CCN1S(=O)(=O)Cc1cccc(NC(=O)C2CN(C(=O)CNc3ccc4c(c3)CN(C3CCC(=O)NC3=O)C4=O)C2)c1 (stereo partly drawn)"
tested_system = "PTPN2 (B16F10.4 cells) (Mus musculus)"
property = "DC50"
reported = "≥ 1 µM"


Could you now look at the following compound, please?
Consider O=C(O)COc1c(C(=O)O)sc(-c2cccc(NC3CCN(S(=O)(=O)Cc4cccc(NC(=O)CCCCCCNC(=O)CNc5cccc6c5C(=O)N(C5CCC(=O)NC5=O)C6)c4)CC3)c2)c1Cl (stereo not drawn) . Its measured DC50 is ≥ 1 µM
